Consider the following molecules and their measured #Cases >70% cell death readings.
Tested on: relapsed AML cells
assay.explanation: Drug sensitivity assay, 1,536-well, 3-day culture with individual approved drugs at 10 μM, viability by alamarBlue
Format: cell-based, human
experimental.context: number of relapsed AML cases out of 18 tested with >70% cell death; 10 μM, 3-day culture
Where a name gives a salt, the structure may show the parent alone.
observed.property: #Cases >70% cell death

>  <molecule>
CCN(CCCc1ccccc1)CCCc1ccccc1 [ALVERINE CITRATE]

>  <value.observed>
4

$$$$
>  <molecule>
Cc1ncc(-c2ccnc(Nc3ccc(S(C)(=O)=O)cc3)n2)n1C(C)C

>  <value.observed>
17

$$$$
>  <molecule>
Cc1cc(N)c2ccccc2[n+]1CCCCCCCCCC[n+]1c(C)cc(N)c2ccccc21 [DEQUALINIUM CHLORIDE]

>  <value.observed>
17

$$$$
>  <molecule>
CC(C)(C)CC(C)(C)c1cc(Cc2cc(C(C)(C)CC(C)(C)C)cc(-n3nc4ccccc4n3)c2O)c(O)c(-n2nc3ccccc3n2)c1

>  <value.observed>
1

$$$$
>  <molecule>
N#Cc1cc(CN2CCC(Nc3ncnc4sc(Cl)cc34)CC2)ccc1F

>  <value.observed>
1

$$$$
>  <molecule>
CC(C)[C@H](N)C(=O)OCCOCn1cnc2c(=O)[nH]c(N)nc21

>  <value.observed>
1

$$$$
>  <molecule>
CCc1cc(Cl)c(OC)c(C(=O)NC[C@@H]2CCCN2CC)c1O [ETICLOPRIDE HYDROCHLORIDE]

>  <value.observed>
1

$$$$
>  <molecule>
O=C1c2c(O)ccc(O)c2C(=O)c2c(NCCNCCO)ccc(NCCNCCO)c21

>  <value.observed>
18

$$$$
